Quick reference: Maximum mean fluorescence intensity of the listed items.
STUDY_SYSTEM: T1, human MSLN full-length protein (NCBI: AAH09272.1) expressed on HEK293T-hMSLN-B8 cells (human, UniProt Q13421 296-598)
T1 construct: Whole encoded precursor
T1 sequence (Q13421 other isoform, or with tags, fused parts or gaps limits assumed): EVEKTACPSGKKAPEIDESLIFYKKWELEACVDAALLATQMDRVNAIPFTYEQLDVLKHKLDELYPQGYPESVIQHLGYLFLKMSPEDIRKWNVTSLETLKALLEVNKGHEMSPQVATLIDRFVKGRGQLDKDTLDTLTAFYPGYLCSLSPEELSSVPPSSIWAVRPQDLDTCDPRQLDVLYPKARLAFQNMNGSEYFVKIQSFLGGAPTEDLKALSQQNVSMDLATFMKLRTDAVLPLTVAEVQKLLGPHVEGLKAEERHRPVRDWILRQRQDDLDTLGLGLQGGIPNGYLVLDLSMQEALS
PROTOCOL_NOTES: FACS on HEK293T-hMSLN-B8 cells

BINDER	Maximum mean fluorescence intensity
S009-F1.35.24 (antibody, human IgG1, kappa, V domains shown, human-murine chimeric antibody, human IgG1/kappa constant regions) VH: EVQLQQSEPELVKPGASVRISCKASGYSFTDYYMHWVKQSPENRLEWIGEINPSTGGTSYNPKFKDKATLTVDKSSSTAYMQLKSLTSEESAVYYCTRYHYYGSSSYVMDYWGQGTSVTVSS VL: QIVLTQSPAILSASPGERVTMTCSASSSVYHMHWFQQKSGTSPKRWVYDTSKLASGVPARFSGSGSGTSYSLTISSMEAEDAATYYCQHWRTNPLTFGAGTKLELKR	109000
S009-F1.57.1 (antibody, human IgG1, kappa, V domains shown, human-murine chimeric antibody, human IgG1/kappa constant regions) VH: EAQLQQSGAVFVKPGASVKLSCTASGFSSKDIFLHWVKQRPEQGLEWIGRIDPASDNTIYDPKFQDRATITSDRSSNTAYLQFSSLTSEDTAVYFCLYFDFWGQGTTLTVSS VL: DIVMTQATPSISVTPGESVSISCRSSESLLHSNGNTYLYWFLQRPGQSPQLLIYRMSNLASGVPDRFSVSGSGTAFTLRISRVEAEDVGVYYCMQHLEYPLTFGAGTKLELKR	8750
